Hello, the source for this data is paper PMC4019986, in case you need it.

Target: T1, GST–KLHL3^290–587 (human, UniProt Q9UH77-1 290-587)
T1 construct: KLHL3, human, NM_017415.2, C-terminal Kelch domain, residues 290-587; pGEX6P-1, PreScission site between GST and KLHL3; eluted with glutathione as the GST fusion; also called isolated KLHL3 Kelch domain; GST-KLHL3 290-587 wild-type; source: E. coli BL21, purified (glutathione–Sepharose); not shown: GST, N-terminal, kept
T1 sequence (looked up): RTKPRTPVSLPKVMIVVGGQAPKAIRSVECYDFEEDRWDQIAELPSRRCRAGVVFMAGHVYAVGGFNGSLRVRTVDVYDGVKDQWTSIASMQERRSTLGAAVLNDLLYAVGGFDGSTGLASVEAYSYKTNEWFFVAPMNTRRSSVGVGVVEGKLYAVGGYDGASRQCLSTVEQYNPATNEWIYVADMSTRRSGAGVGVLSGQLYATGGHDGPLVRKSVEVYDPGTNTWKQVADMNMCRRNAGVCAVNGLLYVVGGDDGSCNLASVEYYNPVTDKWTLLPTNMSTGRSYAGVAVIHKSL
Test: fluorescence polarisation; Kelch protein titrated against 10 nM Lumio-Green-labelled peptide; 25°C; 50 mM Tris/HCl pH 7.5, 150 mM NaCl, 2 mM DTT; one-site specific binding with Hill slope; duplicates, at least 12 points per curve
Conditions: both partners purified
Ends that are not written are not given here.
endpoint: Kd (µM)
Answers are plain numbers, in µM.

Recorded results for 5 binders are shown here.
binder	units.label	value
GPPSVFPPEPEEPEADEHQ (not fully specified (N-terminus); also: Lumio Green fluorophore on N-terminal linker CCPGCCGGGG, source: synthetic peptide (GL Biochem)) [WNK4 Q565E 549–567 peptide]	µM	6.21
FPPEPEEPEADQHQ (not fully specified (N-terminus); also: Lumio Green fluorophore on N-terminal linker CCPGCCGGGG, WNK4 acidic degron, residues 554-567; source: synthetic peptide (GL Biochem)) [WNK4 WT 554–567 peptide]	µM	0.71
FPPEPEEPEADQH (not fully specified (N-terminus); also: Lumio Green fluorophore on N-terminal linker CCPGCCGGGG, WNK4 acidic degron, residues 554-566; source: synthetic peptide (GL Biochem)) [WNK4 WT 554–566 peptide]	µM	7.81
ECEETEVDQHV (not fully specified (N-terminus); also: Lumio Green fluorophore on N-terminal linker CCPGCCGGGG, also called WNK3 motif; source: synthetic peptide (GL Biochem)) [WNK3 degron peptide (WNK3 WT 537–547)]	µM	0.84
PEPEEPEADQHQ (not fully specified (N-terminus); also: Lumio Green fluorophore on N-terminal linker CCPGCCGGGG, WNK4 acidic degron, residues 556-567; source: synthetic peptide (GL Biochem)) [WNK4 WT 556–567 peptide]	µM	0.29

Lookup: I am curious: what Kd value has been reported for PPEPEEPEADQHQ (not fully specified (N-terminus); also: Lumio Green fluorophore on N-terminal linker CCPGCCGGGG, WNK4 acidic degron, residues 555-567; source: synthetic peptide (GL Biochem)) [WNK4 WT 555–567 peptide] ?
Found: 0.91
